# targetUnderTest: Integrin alpha-4/beta-1 (Homo sapiens, UniProt P05556+P13612)
# Sequence (P05556 whole entry): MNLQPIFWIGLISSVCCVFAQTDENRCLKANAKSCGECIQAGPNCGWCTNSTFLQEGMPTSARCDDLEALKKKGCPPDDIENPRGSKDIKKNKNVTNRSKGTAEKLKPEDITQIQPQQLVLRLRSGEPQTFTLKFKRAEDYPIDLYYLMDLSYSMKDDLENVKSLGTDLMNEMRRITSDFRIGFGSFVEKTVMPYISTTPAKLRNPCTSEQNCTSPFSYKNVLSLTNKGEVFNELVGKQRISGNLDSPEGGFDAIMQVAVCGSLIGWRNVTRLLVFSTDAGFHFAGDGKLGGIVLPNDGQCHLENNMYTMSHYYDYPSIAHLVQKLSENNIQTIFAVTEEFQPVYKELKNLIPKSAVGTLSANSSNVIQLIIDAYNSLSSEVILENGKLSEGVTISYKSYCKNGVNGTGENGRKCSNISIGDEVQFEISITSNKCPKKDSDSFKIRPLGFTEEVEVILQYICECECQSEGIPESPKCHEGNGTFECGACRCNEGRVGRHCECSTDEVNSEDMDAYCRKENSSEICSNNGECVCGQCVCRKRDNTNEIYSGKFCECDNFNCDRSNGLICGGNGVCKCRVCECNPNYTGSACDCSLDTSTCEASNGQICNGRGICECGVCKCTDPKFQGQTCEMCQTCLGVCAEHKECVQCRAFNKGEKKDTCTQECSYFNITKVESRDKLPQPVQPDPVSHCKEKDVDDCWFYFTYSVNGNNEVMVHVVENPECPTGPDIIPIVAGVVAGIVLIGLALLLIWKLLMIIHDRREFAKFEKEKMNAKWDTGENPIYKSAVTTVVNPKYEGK
# Sequence (P13612 whole entry): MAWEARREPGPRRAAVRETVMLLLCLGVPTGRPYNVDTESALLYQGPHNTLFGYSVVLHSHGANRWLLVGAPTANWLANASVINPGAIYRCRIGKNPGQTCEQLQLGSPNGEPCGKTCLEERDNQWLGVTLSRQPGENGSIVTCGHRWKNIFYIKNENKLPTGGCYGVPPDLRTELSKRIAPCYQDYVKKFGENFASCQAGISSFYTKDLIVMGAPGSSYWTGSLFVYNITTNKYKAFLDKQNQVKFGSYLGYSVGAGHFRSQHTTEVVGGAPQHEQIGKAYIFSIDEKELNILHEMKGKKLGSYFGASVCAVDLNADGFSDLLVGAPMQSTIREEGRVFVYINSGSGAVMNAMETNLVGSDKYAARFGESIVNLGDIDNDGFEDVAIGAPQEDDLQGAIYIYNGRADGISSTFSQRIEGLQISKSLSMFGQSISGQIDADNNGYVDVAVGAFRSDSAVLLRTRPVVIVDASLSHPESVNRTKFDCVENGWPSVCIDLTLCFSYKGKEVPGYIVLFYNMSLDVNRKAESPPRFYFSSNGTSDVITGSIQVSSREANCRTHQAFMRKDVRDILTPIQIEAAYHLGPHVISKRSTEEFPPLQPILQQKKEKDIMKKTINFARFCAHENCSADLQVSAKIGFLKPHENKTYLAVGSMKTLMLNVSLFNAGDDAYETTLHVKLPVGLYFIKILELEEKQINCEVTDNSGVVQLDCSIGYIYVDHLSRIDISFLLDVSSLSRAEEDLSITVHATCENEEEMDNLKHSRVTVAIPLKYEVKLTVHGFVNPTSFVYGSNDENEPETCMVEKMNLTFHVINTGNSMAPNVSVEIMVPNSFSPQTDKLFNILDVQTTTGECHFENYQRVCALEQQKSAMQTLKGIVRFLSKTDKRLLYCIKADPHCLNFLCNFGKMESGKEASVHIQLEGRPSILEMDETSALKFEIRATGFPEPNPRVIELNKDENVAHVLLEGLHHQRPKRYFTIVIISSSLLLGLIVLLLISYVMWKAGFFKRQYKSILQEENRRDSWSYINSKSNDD
# assay: Dissociation from Very late antigen 4 (VLA-4)
# Format: protein-complex assay
Parameter Bound: see the listing below.
// return numeric value only (unit: %, not printed)

Query block: What does the record list as Bound for `CSc1cnccc1C(=O)Nc1ccc(C[C@H](NC(=O)[C@]2(C)CCCN2S(=O)(=O)c2cc(Cl)cc(Cl)c2)C(=O)O)cc1` ?
Result block: 0

====

# targetUnderTest: Integrin alpha-4/beta-1 (Homo sapiens, UniProt P05556+P13612)
# assay: Inhibition of [125I]VCAM-Ig binding to VLA-4 of Jurkat cells in the presence of Mn2+
# Format: cell-based
recordedEndpoint: pIC50
For clarity, pIC50 is expressed as the negative log10 of concentration in mol/L.

Query block: Need pIC50 of `CSc1cnccc1C(=O)Nc1ccc(C[C@H](NC(=O)[C@]2(C)CCCN2S(=O)(=O)c2cc(Cl)cc(Cl)c2)C(=O)O)cc1` , thanks.
Result block: 9.44

Query block: Follow-up item: `C[C@@]1(C(=O)N[C@@H](Cc2ccc(NC(=O)c3cccnc3)cc2)C(=O)O)CCCN1S(=O)(=O)c1cc(Cl)cc(Cl)c1`
Result block: 9.57

Query block: Let us now turn to `O=C(Nc1ccc(C[C@H](NC(=O)[C@@H]2CCCN2S(=O)(=O)c2ccccc2)C(=O)O)cc1)c1c(Cl)cncc1Cl`
Result block: 9.82

Query block: Please give the result for `C[C@@]1(C(=O)N[C@@H](Cc2ccc(NC(=O)C3=C(Cl)CC(=O)N=C3Cl)cc2)C(=O)O)CCCN1S(=O)(=O)c1cc(Cl)cc(Cl)c1` too.
Result block: 10.00

Query block: Try this compound next: `C[C@@]1(C(=O)N[C@@H](Cc2ccc(NC(=O)c3cnccc3Cl)cc2)C(=O)O)CCCN1S(=O)(=O)c1cc(Cl)cc(Cl)c1`
Result block: 9.85

====

# assay: Oral bioavailability in Beagle dog at a dose of 2 mg/kg by po administration
# Assay type: ADME, organism-based, Canis lupus familiaris
# conditionNotes: in vivo
recordedEndpoint: bioavailability (%)
Provide only the numeric value, understood in %.

Query block: Fill blank: measured bioavailability of the molecule `C[C@@]1(C(=O)N[C@@H](Cc2ccc(NC(=O)c3c(Cl)ccnc3Cl)cc2)C(=O)O)CCCN1S(=O)(=O)c1cc(Cl)cc(Cl)c1` is ____.
Result block: 0.4

====

# targetUnderTest: Integrin alpha-4/beta-1 (Homo sapiens, UniProt P05556+P13612)
# assay: Inhibition of VLA-4 binding in Jurkat cells in the presence of Mg2+
# Assay type: cell-based
Entries annotated with measured log10 IC50
Note: values are log10 of IC50 expressed in nM.

C[C@@]1(C(=O)N[C@@H](Cc2ccc(NC(=O)c3cnccc3Cl)cc2)C(=O)O)CCCN1S(=O)(=O)c1cc(Cl)cc(Cl)c1	-0.68
C[n+]1cc(Cl)c(C(=O)Nc2ccc(C[C@H](NC(=O)[C@]3(C)CCCN3S(=O)(=O)c3cc(Cl)cc(Cl)c3)C(=O)O)cc2)c(Cl)c1	-1.00
C[C@@]1(C(=O)N[C@@H](Cc2ccc(NC(=O)c3c(Cl)cccc3Cl)cc2)C(=O)O)CCCN1S(=O)(=O)c1cc(Cl)cc(Cl)c1	-0.82
CSc1cnccc1C(=O)Nc1ccc(C[C@H](NC(=O)[C@]2(C)CCCN2S(=O)(=O)c2cc(Cl)cc(Cl)c2)C(=O)O)cc1	0.19

Query block: Give its log10 IC50 value. Item: `C[n+]1ccc(C(=O)Nc2ccc(C[C@H](NC(=O)[C@]3(C)CCCN3S(=O)(=O)c3cc(Cl)cc(Cl)c3)C(=O)O)cc2)c(Cl)c1`
Result block: -0.51

Query block: Okay, and `O=C(Nc1ccc(C[C@H](NC(=O)[C@@H]2CCCN2S(=O)(=O)c2cccc(Cl)c2)C(=O)O)cc1)c1c(Cl)cncc1Cl` ?
Result block: -1.00
